tested on: KM12 colon; assay: NCI-60 one-dose screen, 48 h (100 = growth as untreated, 0 = no growth, -100 = all killed); settings: 10 µM unless noted
The panel holds about 83,000 compounds, 20% with a hit somewhere; the sample as a whole holds those more often. Activity calls are given as the source filed them. How the source made its calls: active means growth percent below 10; inactive means the rest.
endpoint_label: growth

[[record]]
molecule = "COc1cc(CNC(=O)Cc2ccccc2[N+](=O)[O-])ccc1OCC(=O)NO"
experimental_system = "KM12 colon"
result = "101% (inactive)"

[[record]]
molecule = "CCOC(=O)c1ccc(N/C=C/C(=O)c2ccccc2)cc1"
experimental_system = "KM12 colon"
result = "98.5% (inactive)"

[[record]]
molecule = "IP(CCCSc1n(Cc2ccc3ccccc3c2)c(-c2ccccc2)c(-c2ccccc2)[n+]1Cc1ccc2ccccc2c1)(c1ccccc1)(c1ccccc1)c1ccccc1"
experimental_system = "KM12 colon"
result = "4.9% (active)"

[[record]]
molecule = "CC(C)(C)OC(=O)N1CCN(S(=O)(=O)/N=C2\\NC(=O)NC2=C(Cl)Cl)CC1"
experimental_system = "KM12 colon"
result = "107% (inactive)"

[[record]]
molecule = "CC(C)C[C@H]1C(=O)O[C@H](C(C)C)C(=O)N(C)[C@@H](C(C)C)C(=O)O[C@H](C(C)C)C(=O)N(C)[C@@H](C(C)C)C(=O)O[C@H](C(C)C)C(=O)N1C"
experimental_system = "KM12 colon"
result = "16.6% (inactive)"

[[record]]
molecule = "NC(=O)c1c(NC(=O)c2cccc(C(F)(F)F)c2F)sc2c1CCC(=O)C2"
experimental_system = "KM12 colon"
result = "7.39% (active)"

[[record]]
molecule = "CC(=O)c1sc(Nc2cccc(Nc3nc(C)c(C)s3)c2)nc1C"
experimental_system = "KM12 colon"
result = "60.2% (inactive)"

[[record]]
molecule = "CN(c1ccc(F)cc1)S(=O)(=O)c1ccc(-c2cnc(C3CC3)o2)cc1"
experimental_system = "KM12 colon"
result = "18.5% (inactive)"


----------
system: HT29 colon; assay: NCI-60 one-dose screen, 48 h (100 = growth as untreated, 0 = no growth, -100 = all killed); conditions: 10 µM unless noted
This is part of a sample that, as a whole, favours compounds with a hit. Of some 83,000 tested, about 20% had one in any assay.
Catalogue of compounds with associated growth
endpoint_label: growth (%)

[[record]]
compound = "Nc1nc(N)c2c(n1)NC(c1ccc(Cl)cc1)CC(c1ccc(Nc3nc(NCCO)nc(Nc4ccc(Cl)cc4)n3)cc1)=N2 (stereo not drawn)"
readout_number = -21.8

[[record]]
compound = "C=CCn1c(SCC(=O)Nc2cccc(C(=O)/C=C/c3ccccc3Cl)c2)nc2ccccc2c1=O"
readout_number = 75

[[record]]
compound = "O=c1[nH]c(CNc2ccc(NCc3c(-c4ccccc4)no[n+]3[O-])cc2)nc2c1cnn2-c1ccccc1"
readout_number = 92

[[record]]
compound = "CS(=O)(=O)c1ccc(-c2nn(-c3ccccc3)cc2/C=C/C(=O)c2ccc(Br)cc2)cc1"
readout_number = 97.8

[[record]]
compound = "O=C(NCCCNc1cc(-c2cn(-c3ccccc3)nc2-c2cccc(O)c2)ccn1)Nc1cc(C(F)(F)F)cc(C(F)(F)F)c1"
readout_number = 31.7

[[record]]
compound = "COc1ccc(-c2nc(SCC(C)C)nc(N/N=C\\c3cccc([N+](=O)[O-])c3)c2C#N)cc1"
readout_number = 49.9

[[record]]
compound = "CC(C)c1nn(-c2ccccc2)c(N2CCCCC2)c1/C=N/NC(N)=S"
readout_number = 81.4

[[record]]
compound = "N#C/C(=C\\c1ccc(-c2ccc(F)cc2)o1)C(=O)Nc1ncc(Cc2ccc(Cl)cc2Cl)s1"
readout_number = 6.93


----------
system: SN12C renal; experiment: NCI-60 one-dose screen, 48 h (100 = growth as untreated, 0 = no growth, -100 = all killed); conditions: 10 µM unless noted
This is part of a sample that, as a whole, favours compounds with a hit. Of some 83,000 tested, about 20% had one in any assay. The source made the active and inactive calls. The calls were made as follows: active = growth percent below 10; inactive = the rest.
Catalogue of molecules with associated growth
endpoint_label: growth

[[record]]
molecule = "COc1ccc(Cn2cc3c(c2-c2ccccc2)CCCc2cnoc2-3)cc1"
result = "79.8% (inactive)"

[[record]]
molecule = "COc1ccc(/C=C/C(=O)c2nnn(-c3ccc(C(=O)O)cc3)c2C)cc1OC"
result = "92.2% (inactive)"

[[record]]
molecule = "CC1=CC(=O)CC(C)(C)[C@@]1(O)/C=C/C(C)=C\\C(=O)O"
result = "-15.1% (active)"

[[record]]
molecule = "O=C1Nc2cc(OC(F)(F)F)ccc2Oc2ccc(-c3ccnc(N4CC[C@H](O)C4)c3)cc21"
result = "7.37% (active)"

[[record]]
molecule = "C/C(=C(/C)C1CC1CCN(C(=O)c1ccccn1)S(=O)(=O)c1ccc(C)cc1)C1CCCCC1 (centres undefined)"
result = "98.2% (inactive)"

[[record]]
molecule = "NC(=O)C(=Cc1ccc(Cl)cc1)C(N)=O"
result = "45.3% (inactive)"

[[record]]
molecule = "COc1ccccc1/C=C/C=N/NC1=NC2C(S1)N(C)C(=O)N2c1ccccc1 (centres undefined)"
result = "20.6% (inactive)"

[[record]]
molecule = "Cc1ccc(/C=C/c2nn3c(-c4ccco4)nnc3s2)cc1"
result = "107% (inactive)"

[[record]]
molecule = "COc1cc(C(=O)C[n+]2ccc3ccccc3c2)cc(OC)c1OC"
result = "90.4% (inactive)"

[[record]]
molecule = "COc1cc(OC)c(S(N)(=O)=O)cc1C(=O)/C=C/c1ccccc1"
result = "11.3% (inactive)"

[[record]]
molecule = "COc1ccc2c(C3=C(c4cn(C)c5ccccc45)C(=O)NC3=O)coc2c1"
result = "32.3% (inactive)"

[[record]]
molecule = "Cc1ccc(NC(=O)c2cc(/C=C/C(=O)NO)cc(C(F)(F)F)c2)cc1Nc1nccc(-c2cccnc2)n1"
result = "2.25% (active)"

[[record]]
molecule = "C#C[C@]1(O)CC[C@H]2[C@@H]3CC=C4c5sc(Nc6cc(Cl)ccn6)nc5CC[C@]4(C)[C@H]3CC[C@@]21C"
result = "53.6% (inactive)"

[[record]]
molecule = "Oc1ccc(CSc2nnc(-c3cnccn3)o2)c2cccnc12"
result = "7.45% (active)"

[[record]]
molecule = "COc1ccc(-c2nnc(SCc3ccc(O)c4ncccc34)o2)cc1"
result = "46.6% (inactive)"

[[record]]
molecule = "CN(C)C(=O)C1=NC(CO)C(=O)N(c2ccc(Cl)cc2)N1 (centres undefined)"
result = "105% (inactive)"

[[record]]
molecule = "COc1cc(/C=N/n2cnc3oc(-c4ccccc4)cc3c2=N)cc(CN2CCCC2)c1O"
result = "-78.8% (active)"

[[record]]
molecule = "Cc1cc2nc(C(Cl)Cl)nc(-c3ccco3)n2n1"
result = "93.7% (inactive)"

[[record]]
molecule = "C[C@H]1[C@H](C)CC[C@]2(COC(=O)c3cccnc3)CC[C@]3(C)C(=CC[C@@H]4[C@@]5(C)CCCNC(C)(C)[C@@H]5CC[C@]43C)[C@H]12"
result = "67.6% (inactive)"

[[record]]
molecule = "C=CCn1c(SCC(=O)Nc2cccc(C(=O)/C=C/c3ccc(C)cc3)c2)nc2ccccc2c1=O"
result = "91.5% (inactive)"

[[record]]
molecule = "NS(=O)(=O)Oc1ccc2nc(Nc3ccc(F)c(F)c3)ccc2c1"
result = "88% (inactive)"

[[record]]
molecule = "O=[N+]([O-])c1ccc(-c2nnc(SCc3ccc(O)c4ncccc34)n2-c2ccccc2)cc1"
result = "9.69% (active)"

[[record]]
molecule = "CC(c1ccccc1)N1C(=O)/C(=C/c2csc(C#N)n2)SC1=S (centres undefined)"
result = "93.3% (inactive)"

[[record]]
molecule = "N/C(=N\\OC(=O)CSc1nc2ccccc2s1)c1ccc(Cl)cc1"
result = "102% (inactive)"

[[record]]
molecule = "O=C1c2c(c3c4ccc(Br)cc4oc3c3[nH]c4ccccc4c23)C(=O)N1CCO"
result = "34% (inactive)"

[[record]]
molecule = "CCC(=O)Nc1ccc(-c2nc(-c3cccc(O)c3)c(-c3ccnc(Br)c3)[nH]2)cc1"
result = "67.4% (inactive)"

[[record]]
molecule = "CC1CCc2c(sc3nc(SCC(=O)N/N=C/c4ccc(Cl)cc4)n(-c4ccccc4)c(=O)c23)C1 (centres undefined)"
result = "95.6% (inactive)"

[[record]]
molecule = "CN1CCN(c2ccc(C(=O)/C=C/c3ccc(Cl)c(C(F)(F)F)c3)cc2)CC1"
result = "49.1% (inactive)"

[[record]]
molecule = "CCCC(=O)NC(c1cccnc1)c1ccc2c(C)ccnc2c1O (centres undefined)"
result = "29.1% (inactive)"

[[record]]
molecule = "CCc1ccc(NC(=O)N[C@@H](Cc2cccc(C)c2)C(=O)N[C@@H]2C(=O)N3CCC[C@H]3C(=O)N3CCCC[C@H]3C(=O)N[C@@H](CO)C(=O)N3C[C@H](C)C[C@H]3C(=O)O[C@H]2C)c(F)c1"
result = "22.4% (inactive)"

[[record]]
molecule = "COc1ccccc1/C=C/C(=O)c1nnn(-c2ccc(C(=O)O)cc2)c1C"
result = "84.1% (inactive)"

[[record]]
molecule = "O=c1oc2ccc(-c3ccc(F)cc3F)cc2c(=O)n1-c1ccc(F)c(F)c1"
result = "2.02% (active)"

[[record]]
molecule = "CN(c1ccc(F)cc1)S(=O)(=O)c1ccc(-c2cnc(C3CC3)o2)cc1"
result = "37.3% (inactive)"

[[record]]
molecule = "Cc1ccc(S(=O)(=O)N/N=C/c2cn(-c3ccc(F)cc3)nc2-c2ccc(S(C)(=O)=O)cc2)cc1"
result = "99.8% (inactive)"

[[record]]
molecule = "C#C[C@]1(O)CC[C@H]2[C@@H]3CC=C4c5sc(C6CCOCC6)nc5CC[C@]4(C)[C@H]3CC[C@@]21C"
result = "82.9% (inactive)"

[[record]]
molecule = "COc1ccc(CN2C(=O)/C(=C/c3nc(CO)cs3)SC2=S)cc1"
result = "93% (inactive)"

[[record]]
molecule = "CC(=O)Nc1cccc(-n2cnc3cc(-c4ccc(O)cc4)ccc32)c1"
result = "38.1% (inactive)"

[[record]]
molecule = "CCCC(=O)NC(c1cccnc1)c1cc(Cl)c2cccnc2c1O (centres undefined)"
result = "44.4% (inactive)"

[[record]]
molecule = "Clc1ccc(-c2csc(N/N=C/c3nc4ccccc4n3C3CC3)n2)cc1"
result = "104% (inactive)"

